TESTED_TARGET: ERβ (Homo sapiens, UniProt Q92731)
Sequence (Q92731 whole entry, species assumed): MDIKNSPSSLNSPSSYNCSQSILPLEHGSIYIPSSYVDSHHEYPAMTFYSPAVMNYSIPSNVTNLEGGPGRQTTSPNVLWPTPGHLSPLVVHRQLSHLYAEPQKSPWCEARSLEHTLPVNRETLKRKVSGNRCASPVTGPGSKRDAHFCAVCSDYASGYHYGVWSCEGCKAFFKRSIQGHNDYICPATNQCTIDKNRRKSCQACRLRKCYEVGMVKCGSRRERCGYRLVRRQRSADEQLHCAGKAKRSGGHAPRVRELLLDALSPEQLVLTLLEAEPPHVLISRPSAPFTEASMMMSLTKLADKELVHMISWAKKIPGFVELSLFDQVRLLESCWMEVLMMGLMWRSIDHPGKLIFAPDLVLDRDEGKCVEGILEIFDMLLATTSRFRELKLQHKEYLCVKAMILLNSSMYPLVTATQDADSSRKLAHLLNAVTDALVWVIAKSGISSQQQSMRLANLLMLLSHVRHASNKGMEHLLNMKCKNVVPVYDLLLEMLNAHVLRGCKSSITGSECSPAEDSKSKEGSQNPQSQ
METHOD_SUMMARY: Relative binding affinity (RBA) to estrogen receptor beta, radiometric measurement
ASSAY_CONDITIONS: ratio of RBA ERβ to RBA ERα
Output 1 for β/α Ratio not less than 20; output 0 otherwise.

Is reported β/α Ratio greater than or equal to 20 here: Cc1cc(O)ccc1-n1nc2ccc(O)cc2c1Cl [IndCl-o-Me]
1

Is reported β/α Ratio greater than or equal to 20 here: Oc1ccc(-n2nc3ccc(O)cc3c2Cl)c(Br)c1 [IndCl-o-Br]
0

Is reported β/α Ratio greater than or equal to 20 here: Oc1ccc(-n2nc3ccc(O)cc3c2C2SCCS2)cc1 [Ind-Thiolane]
0

Is reported β/α Ratio greater than or equal to 20 here: Oc1ccc(-n2nc3ccc(O)cc3c2Cl)cc1 [IndCl, chloroindazole]
1

Is reported β/α Ratio greater than or equal to 20 here: Oc1cc(F)c(-n2cc3cc(O)ccc3n2)c(F)c1 [IndH-o-F2]
0

Is reported β/α Ratio greater than or equal to 20 here: Oc1ccc(-n2nc3ccc(O)c(Cl)c3c2Cl)c(Cl)c1 [IndCl-o-Cl-4-Cl]
0

Is reported β/α Ratio greater than or equal to 20 here: Oc1ccc(-n2nc3ccc(O)cc3c2Cl)c(F)c1 [IndCl-o-F]
1

Is reported β/α Ratio greater than or equal to 20 here: Oc1ccc(-n2nc3ccc(O)cc3c2Cl)c(O)c1 [IndCl-o-OH]
1

Is reported β/α Ratio greater than or equal to 20 here: Oc1ccc(-n2nc3ccc(O)cc3c2I)c(I)c1 [IndI-o-I]
0

Is reported β/α Ratio greater than or equal to 20 here: C=CCc1c2cc(O)ccc2nn1-c1ccc(O)cc1Br [Ind-allyl-o-Br]
0

Is reported β/α Ratio greater than or equal to 20 here: Oc1ccc(-n2nc3ccc(O)cc3c2Cl)c(C(F)(F)F)c1 [IndCl-o-CF3]
0

Is reported β/α Ratio greater than or equal to 20 here: Oc1cc(Cl)c(-n2cc3cc(O)ccc3n2)c(Cl)c1 [IndH-o-Cl2]
0

Is reported β/α Ratio greater than or equal to 20 here: Oc1ccc(-n2nc3ccc(O)cc3c2Cl)c(I)c1 [IndCl-o-I]
0

Is reported β/α Ratio greater than or equal to 20 here: OCc1cc(O)ccc1-n1nc2ccc(O)cc2c1Cl [IndCl-o-CH2OH]
0

Is reported β/α Ratio greater than or equal to 20 here: Oc1cc(F)c(-n2nc3ccc(O)c(Cl)c3c2Cl)c(F)c1 [IndCl-o-F2-4-Cl]
0

Is reported β/α Ratio greater than or equal to 20 here: OCc1c2cc(O)ccc2nn1-c1ccc(O)cc1 [Ind-CH2OH]
1
